Data origin, for the record: the nanobody polyreactivity screen of Harvey et al. (2022)

assay: yeast display, Sf9 membrane polyspecificity reagent, FACS + sequencing; frameworks hold sequencing errors
measure_name: polyreactivity (PSR sort gate)

Record excerpt, results attached:
| residues | polyreactivity (PSR sort gate) |
| --- | --- |
| QVQLVESGGGLVQAGGSLRLSCAASGIIFSYYTMGWYRQAPGKERELVAAISARGGRTYYADSVKGRFTISRDNAKNTVYLQMNSLKPEDTAVYYCAASWSTEYYWGQGTQVTVSS | high polyreactivity |
| QVQLVESGGGLVQAGCSLRLSCAASGFTFDQYAMGWYRQAPGKEREFVAGNSYGRGRTYYADSVKGRFTISRDNAKNNFYLQMNSVKPEVTAVYYCAADGVYRYNYPYLYTYDYWGQGTQVTVSS | low polyreactivity |
| QVQLVESGGGLVQAGGRLRLSCAASGSIIHYYTMGWSRQAPGKERELVAAINWSGTRTYYADSVKGRFTISRDNAKNTVYLQMNSLKPEDTAVYYCAAESYYPAGIRVYWGQGTQVTVSS | high polyreactivity |
| QVQLVESGGGLVQAGGSLRLSCAASGLSLGVYTLGWYRQAPGKEREFVASINYGGGSTYYADSVKGRFTISRDNAKNTVYLQMNSLKPEDTAVYYCNARSRWGGTRLYSYDYWGQGTQVTVSS | low polyreactivity |
| QVQLEESGGGLVQAGGSLRLSCAASGYISRQSAMGWYSQAPGKERELVAAITRGGAGTYYAASVKGRFTISRDNAKHTVYLQMNSLKPEDTAVYYCAKTWVSRDVEYDYWGQGTQVTVSS | low polyreactivity |
| QVQLVESGGGLVQAGGSLRLSCAASGSILYRYAMGWYRQAPGKERELVAGISKTGSSTYYADSVKGRFTISRDNAKNTVYLQMNSLKPEDTAVYYCNVRHGYSGKDYRYDYWGQGTQVTVSS | low polyreactivity |

Form: sequence = QVQRVESGGGLVQAGGSLRLSCAACGSILPQYTMVWYRQAPGKERELVAAISKRGDRTYYADSVKGRFTISRDNAKNTVYLQMNSLKPEDTAVYYCAALGTGTGARSRYSVRFDYWGQGTQVTVSS ; polyreactivity (PSR sort gate) = high polyreactivity
